Hey, just so you know, these numbers are from the supplement of paper PMC10567573.

# PROTOCOL_DESCRIPTION: protein stability index of a GFP-peptide fusion (GPS, HEK-293T) (PSI 1-6); higher = more stable;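 also: 24-mer peptide tiles fused after GFP, lentivirally expressed, FACS-sorted into six equal bins by GFP/DsRed ratio, decoded by Illumina sequencing, PSI is the read-weighted mean bin number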
# TEST_PARAMETERS: treatment: DMSO; c terminus: a fixed tail appended
Below, each entry is listed with its recorded protein stability index.
Write the value as a bare number.

Indicate the recorded protein stability index value for this sequence: RQAELLEKRLQEIEELEREAERKI [SRPK2]
5.13

State its protein stability index: SYSQSSNLFRHQRRHNAEKLLNVV [ZNF24]
2.58

Tell me its protein stability index given MTVKQYEAARLEYDAYRTDLEELS [ARFIP2] as the entry.
3.84

Look up and state reported protein stability index for NTFFCHSNMCINNTLVCNGLQNCV [NETO1]
2.13

Give protein stability index for the following sequence: AANKGEEKKDDENIPMETEETHLE [SMARCE1]
5.64

Write down protein stability index measured for item DTGVGKSSIVWRFVEDSFDPNINP [RAB22A]
2.93

State its protein stability index for this sequence: KLDKKLKKMEQNKTAATRYRQKKR [ATF4]
4.48

Identify the reported protein stability index for the following entry. SSNYFSPRESTDFSSSSQEAFAAS [ZBTB22]
4.41

Kindly indicate its recorded protein stability index. Item: SESRKPTVSIMEPGETRRNSYPRA [TRIM29]
4.79

====

# PROTOCOL_DESCRIPTION: protein stability index of a GFP-peptide fusion (GPS, HEK-293T) (PSI 1-6); higher = more stable
# TEST_PARAMETERS: treatment: MLN4924 1 uM, 8 h; c terminus: a fixed tail appended
QUANTITY: protein stability index
Please reply with the value in numeric form only.

For orientation, consider the following solved cases.
SEQUENCE_CONTENT: PFAPEPTPPTTTAEIATASASAST [SNAP91]
VALUE_REPORTED: 5.41
//
SEQUENCE_CONTENT: RKPGMSSTARRSRAASSQRAEEED [CHMP4C]
VALUE_REPORTED: 5.41

Hello, please tell me recorded protein stability index for this one: DKFQWLAGLAPPSLFARAMQVLVT [ANKRD9]
2.29

Quick one: give measured protein stability index for LIQRKKVHVFGDELSLVTLFRCIQ [TNFSF13B]
2.04

Assign protein stability index to the following record: LSRRQLCPLTPGPGKALGPAATMA [C2CD2L]
3.13

Please report the measured protein stability index for VDGRATQKLIVNLKPEKSYSFVLT [PTPRD]
2.37

Name the recorded protein stability index of the item ERYEIDSLIGKGSFGQVVKAYDHQ [DYRK1B] in your answer.
4.02

====

# PROTOCOL_DESCRIPTION: protein stability index of a GFP-peptide fusion (GPS, HEK-293T) (PSI 1-6); higher = more stable
# TEST_PARAMETERS: treatment: DMSO; c terminus: a fixed tail appended
QUANTITY: protein stability index
// no unit string in output, number only

A selection of reference data follows.
SEQUENCE_CONTENT: EMFLYFEDHGLVTCSADHLIILWK [WDR41]
protein stability index: 2.76
--
SEQUENCE_CONTENT: IQQLLEPQQYMAFLPHHIMVKIFR [FBXO34]
protein stability index: 2.13
--
SEQUENCE_CONTENT: QSVENCPEDLAQLEELIDMAVLEE [RPAIN]
protein stability index: 5.27

Look up and state reported protein stability index for GPHEAFNKLWELCCQWLKPKMRSK [ZNF449]
2.67

====

# PROTOCOL_DESCRIPTION: protein stability index of a GFP-peptide fusion (GPS, HEK-293T) (PSI 1-6); higher = more stable
# TEST_PARAMETERS: treatment: MLN4924 1 uM, 8 h; c terminus: a fixed tail appended
Tag: fulfilled if measured protein stability index is not below 3, not fulfilled if it is.

Solved entries (count: 5):
SEQUENCE_CONTENT: FLVVLKTVLENEDDMLLFDEQEKG [FAN1]
ANSWER_LABEL: not fulfilled
--
SEQUENCE_CONTENT: GGYGGGVSCGFGGGAGSGFGGGYG [KRT13]
ANSWER_LABEL: not fulfilled
--
SEQUENCE_CONTENT: GAVTASKHSNSPPLVTPPQSPVSP [SMTNL2]
ANSWER_LABEL: fulfilled
--
SEQUENCE_CONTENT: SKTEELNREVATNSELVQSGKSEI [KRT17]
ANSWER_LABEL: fulfilled
--
SEQUENCE_CONTENT: RVVDGTPCSPDSSSVCVQGRCIHA [ADAMTS4]
ANSWER_LABEL: fulfilled

Decide: is the reported value of protein stability index for VADMMYFCQMLAVVETINAAIGVT [HACD3] equal to or greater than 3?
fulfilled

Could you verify whether the entry PMAADEGSAEKQAGEAHMAADGET [EHMT1] shows protein stability index of no less than 3?
fulfilled

hey, is protein stability index for this one >= 3? GEQDTWAGEGAEALARNLLVDGET [NFE2L1]
fulfilled

Is the recorded value of protein stability index equal to or greater than 3 for this sequence? EESEPGTLVGNVAQDLGLKMTDLL [PCDHGC5]
fulfilled

Dear colleague, could you confirm whether SEEAVQKLATCYFFTVEFGLCKQD [TPH1] has protein stability index at or above 3?
not fulfilled

Check this sequence for protein stability index at or above 3: VPDREEGGSGGGGGGDEDGSLGSR [SMAD6]
fulfilled

Kindly determine if protein stability index recorded for EDILNDPSQSEVMGEPHLMVEYKL [POMP] is above or exactly 3.
fulfilled

====

# PROTOCOL_DESCRIPTION: protein stability index of a GFP-peptide fusion (GPS, HEK-293T) (PSI 1-6); higher = more stable
# TEST_PARAMETERS: treatment: DMSO; c terminus: a fixed tail appended
QUANTITY: protein stability index
Lab note: jot the number down without any unit.

Some entries whose results are on file:
SEQUENCE_CONTENT: SHSNITGIVEVILGETKAYVFFEK [TRIB1]
protein stability index: 2.41
--
SEQUENCE_CONTENT: LTLKVCKPQAPQKLDPTLSSCFFI
protein stability index: 2.37
--
SEQUENCE_CONTENT: SLDFTKKILHTAWHPAENIIAIAA [PPP2R2C]
protein stability index: 2.58
--
SEQUENCE_CONTENT: TSRRSGVGLAVVNGQLMAVGGFDG [KLHL20]
protein stability index: 2.99
--
SEQUENCE_CONTENT: RDFAETHNCVDLMQAAEVFSQKHF [KLHL12]
protein stability index: 3.31
--
SEQUENCE_CONTENT: NLLEKFFEMKKGQCKDALEIYKRF [SNAP91]
protein stability index: 2.41
--
SEQUENCE_CONTENT: HAGEHLLLGATKRSMVFKDVLLLG [HNF4A]
protein stability index: 2.26
--
SEQUENCE_CONTENT: PDGVWAYNRGEHPIFVNSPTLDAP [SMAD6]
protein stability index: 3.56
--
SEQUENCE_CONTENT: DDVEVLTLKKFKGDLAYRRQEYQK [C8orf76]
protein stability index: 3.78
--
SEQUENCE_CONTENT: TRWCHIVRDSDSLAESEFESAAFS [PHTF1]
protein stability index: 3.45

Give a short answer stating reported protein stability index for SGNDPFAPSEGSAEAAPELDLFAM [SNAP91] .
4.83

Give protein stability index for the following sequence: REEQQLLASTSKPVVKLLHNRSNN [KCTD13]
4.75

====

# PROTOCOL_DESCRIPTION: protein stability index of a GFP-peptide fusion (GPS, HEK-293T) (PSI 1-6); higher = more stable
# TEST_PARAMETERS: treatment: DMSO; c terminus: a fixed tail appended
Recorded protein stability index by entry
Form field (numeric): enter value without unit.

SEQUENCE_CONTENT: SLLRPLNSLAALDLSGIQTSDAAF [ZER1]
QUANTITY: protein stability index
VALUE_REPORTED: 2.87
--
SEQUENCE_CONTENT: LKLLDELPIAKVMKDYLKHKFDDI [ASB7]
QUANTITY: protein stability index
VALUE_REPORTED: 2.04
--
SEQUENCE_CONTENT: SIVTAAKKDILLVNDHLLNFVRER [PDS5B]
QUANTITY: protein stability index
VALUE_REPORTED: 2.25
--
SEQUENCE_CONTENT: RYRGLGLLASVPSNPNGNGGFMGY [CRY1]
QUANTITY: protein stability index
VALUE_REPORTED: 2.53
--
SEQUENCE_CONTENT: KKQLADETLLKVDLENRCQSLTED [LMNB1]
QUANTITY: protein stability index
VALUE_REPORTED: 5.13

Look up protein stability index of FVDFFVRLFTQLKFGVVQTSVEEC [CLCN6] and report it.
3.59

Report protein stability index, nothing else, for this sequence: KVTLRIRNVRFSDEGGFTCFFRDH [MOG]
2.29

Identify the reported protein stability index for the following entry. TVNVQRTGQPLPQSIQQAMRYLRN [DLC1]
3.17
